sequences and their reported apparent KD of MS2 coat protein
test system: MS2 coat protein; experiment: apparent KD of MS2 coat protein; designed switch direction (-1 OFF switch, 1 ON switch): 1; higher = weaker reporter binding; conditions: input ligand: FMN 200 uM
Express your answer in µM, writing the number without its unit.

Worked set:
GUUAGGAAUCUAGCAUACAUGAGGAUCACCCAUGUAAGUGGGAAGGAUAUGGUACAGAAACUGUACCAGAAGGUCUUAUUAAUU [Omei SS(NG) 3 A] (Eterna round: R96, puzzle: Same State NG 3); 0.0653
ACUGCAAUUAACGCCUACAUGAGGAUCACCCAUGUAUGUAGGCAGGAUAUCGUUUGCUUUGCAAACGAGAAGGGCUGUAGUAGC [salish99_SSNG3_R04_003] (Eterna round: R96, puzzle: Same State NG 3); 0.0591
AUAUGAGAAGCAGGAUAUGCGGAGAAGAAAGAAGCAGAAGGGCUUAUGGGACAACAUGAGGAUCACCCAUGUUCUCUGUGAUGA [AK SSNG1-V2-3] (Eterna round: R96, puzzle: Same State NG 1); 0.0243
GCGAGCGUACUUGCUACAUGAGGAUCACCCAUGUUUAUUGGACAGGAUAUGGUACCGUUUCGGUACCAGAAGGGUUCAUCAUGU [JL SSNG3 3.70] (Eterna round: R96, puzzle: Same State NG 3); 0.294
GCUCGACGUAUUGUCUACAUGAGGAUCACCCAUGUAGGUGCGAAGGAUAUCUACGUGUUUCAUGUAGAGAAGGUCGUGUCGAGC [SameState NG3 #93] (Eterna round: R96, puzzle: Same State NG 3); 0.0363
GUUACAUGAGGAUCACCCAUGUAUGUGUGGGAGUAAGUGUCUUAGGAUAUCUGGUAUUUAAUUUAAGAGAAGGAAGAUUGUUGU [JMF's solution 30] (Eterna round: R96, puzzle: Same State NG 3); 0.0919
GUGGAGGAUUAAGGAUAUUGAAUACAUAUGUUUAACAUGAGGAUCACCCAUGUGGGUUGCGGUAUCGAGAAGGUAAAUUACUGG [salish99_SSNG2_r04_034] (Eterna round: R96, puzzle: Same State NG 2); 0.146
GGUAAGAAUUAAGGAUAUUGAUUACAUAUGUUUAACAUGAGGAUCACCCAUGUGGGUUGCGGUAUCGAGAAGGUAAAAUAAUAG [Mat - same State NG 2 - JL mod - D83] (Eterna round: R96, puzzle: Same State NG 2); 0.145
UUUCGAUAGAUAGGAUAUCACCUUACAUGAGGAUCACCCAUGUUGGCCGUGCUGGUUAUUCAUACUGAGAAGGAUCUUGAUGAC [JR_SSNG2_Sub004] (Eterna round: R96, puzzle: Same State NG 2); 0.0394
GCAGGAAGCAAAGGAUAUGGAAGAUUACUCAGUCCAGAAGGUUGCUUCUUGGAACAUGAGGAUCACCCAUGUCACCGUUACGGC [Eternabot solution 30] (Eterna round: R96, puzzle: Same State NG 1); 0.0158

Prompt line: Form field: reported apparent KD of MS2 coat protein of UGGAGACAUCAAGGAUAUGCUACCGUUUCGGUAGCAGAAGGUGAUCACAUGAGGAUCACCCAUGUAUGCAUGCGUGAGCGUGCU [JL SSNG1 3.53] (Eterna round: R96, puzzle: Same State NG 1)
Response line: 0.779

Prompt line: Further, for GCUUGCCGCACAGGAUAUGGGUGCCUGUACAUGAGGAUCACCCAUGUUAAGGGACGGAUUACGAACCAGAAGGGUGAGGCGGGC [Lereatle] (Eterna round: R96, puzzle: Same State NG 2) ?
Response line: 0.0594

Prompt line: Can you check AACCCGAAGGGAGGAUAUGGCACCUUAUUGGUGCCAGAAGGUCCUCACAUGAGGAUCACCCAUGUGGGCCGGUCGAAAGACCGG [Fiskers NG1ss - 12] (Eterna round: R96, puzzle: Same State NG 1) next?
Response line: 0.532

Prompt line: Then what about the sequence AGGCCAUCGGGAGGAUAUGGCACCUUAUUGGUGCCAGAAGGUCCAACAUGAGGAUCACCCAUGUGGGAGUGGUCUAAUGACCAC [Fiskers NG1(ss) - 4] (Eterna round: R96, puzzle: Same State NG 1) ?
Response line: 0.0643

Prompt line: Next sequence: AAGAAAGACGCAGGAUAUCAGUGCAGACCGCACUGAGAAGGGUGAGACAUGAGGAUCACCCAUGUAACACGACAAAACGUCGUG [Anritiat] (Eterna round: R96, puzzle: Same State NG 1)
Response line: 0.111

Prompt line: Field entry: GCUACCAAAGAAGCCAACAUGAGGAUCACCCAUGUAUGUUGGUAGGAUAUCGUUUGCAAAGCAAACGAGAAGGGCUAAGGUAGC [Mat - Same State NG 3 - JL Mod - D77] (Eterna round: R96, puzzle: Same State NG 3)
Response line: 0.138

Prompt line: Further, for GGGAGAGACGUAGGAUAUGGAAGAAGAUAGAGACUAGAAGGGUGAACAUGAGAAUCGAAGUGUAAAGUGAGAUGAGGUGGGAGA [iteri-1] (Eterna round: R96, puzzle: Same State NG 1) ?
Response line: 0.0265

Prompt line: Record: GCUCGAUGAUAGGCCUACAUGAGGAUCACCCAUGUAACUGGGCAGGAUAUCUAAAUGCAGAAUGUAGAGAAGGGCCCGUCGAGC [SameState NG3 #53] (Eterna round: R96, puzzle: Same State NG 3)
Response line: 0.22

Prompt line: Same thing, different sequence: GUUUGAUGGUGAGGAUAUGUACAAAGAUAGGGUAUAGAAGGCAUGCGCCGGGAAACCGCGGUACAUGAGGAUCACCCAUGUGUC [Eternabot solution 36] (Eterna round: R96, puzzle: Same State NG 1)
Response line: 0.207

Prompt line: Again, but for UGGUACAUGGGAGGAUAUGGGUUGAUGACAUGAGGAUCACCCAUGUUAAAUAUGCCGAGAGGCAACUAGAAGGCCCAUGUACCU [JL SSNG1 3.99] (Eterna round: R96, puzzle: Same State NG 2)
Response line: 0.0627

###

This section presents sequences with their documented apparent KD of MS2 coat protein values.
system: MS2 coat protein; experiment: apparent KD of MS2 coat protein; designed switch direction (-1 OFF switch, 1 ON switch): -1; higher = weaker reporter binding; conditions: Eterna round: R95; input ligand: microRNA oligo, concentration not stated

Guide cases for apparent KD of MS2 coat protein, answers given:
UAAAAGCUAGGAUAUACAUGAGGAUCACCCAUGUAAUCUCUCACUUACACGGAGGAUCGUAGAAGGAGCACAAA [Inlaveti] (puzzle: Exclusion 3); 20.3 nM
CAGGAUAGAGGAUAUACAUAGAUACAGAUUCAUGUGAUCCUACAUGAGGAUCACCCAUGUAGAAGGCUAACCUG [Fiskers Ex 2 - 24] (puzzle: Exclusion 2); 306 nM
GUAAAGUGAGGAUAUGCUGGAGGUGUAUUCUACGUGUCGAAACAUGAGGAUCACCCAUGUAGAAGGCACGGGCG [Sozaquce] (puzzle: Exclusion 2); 10 nM

Prompt line: // returns reported apparent KD of MS2 coat protein for input AGAUGUAGAUACCGGUCCUACAUGAGGAUCACCCAUGUAGCUAGACGUGCGGGCGGCGCUCGUCGGACUACCAGUAG [salish99_TOv1_r3_098] (puzzle: Sensor v3, turn-off variant 1)
Response line: 42.8 nM

Prompt line: Consider next the sequence GUGAAACAUGAGGAUCACCCAUGUGAGGAUAUGUUUUAGUAAUGAUGAAAGUAAAUCUACAGAAGGCACAAUGG [Mat - Mod of JL D70] (puzzle: Exclusion 1) in the same way.
Response line: 77.9 nM

###

tested on: MS2 coat protein; test: apparent KD of MS2 coat protein; designed switch direction (-1 OFF switch, 1 ON switch): 1; higher = weaker reporter binding; details: input ligand: none
quantity: apparent KD of MS2 coat protein (nM)
Reply with just the number (in nM).

Prompt line: Checklist item: apparent KD of MS2 coat protein tested on MS2 coat protein, entry AUAGUUGCCGAAGGAUAUGAUGAGGAUCACCCAUCAGAAGGUCGGCUAUUGGGUGGACAUGAGGAUCACCCGUGUUCUUUGGUC (Eterna round: R96, puzzle: Same State NG 1) , value?
Response line: 32.3

Prompt line: Note, next up: UUAAUGAUGUAAGGAUAUACAUGAGGAUUUCUCGUAGAAGGUACAAGACAUGAGGAUCACCCAUGUAUCGCUCCGUAGAGCGUA [JL SSNG1 1.10] (Eterna round: R96, puzzle: Same State NG 1)
Response line: 287

Prompt line: Entry ACUGCAAUUAACGCCUACAUGAGGAUCACCCAUGUAUGUAGGCAGGAUAUCGUUUGCUUUGCAAACGAGAAGGGCUGUAGUAGC [salish99_SSNG3_R04_003] (Eterna round: R96, puzzle: Same State NG 3) please
Response line: 64.1

Prompt line: // query: GUAGCAUACCGAGGAUAUUCAUAACAUGAGGAUCACCCAUGUAUUAGGCCACAUUAGUGGCCUUGGGAGAAGGCGGAAUGCUAC [Xeonanis - 20 Mod45] (Eterna round: R96, puzzle: Same State NG 2)
Response line: 16.9

Prompt line: And for GAAAGGCCUACAGGAUAUACCACAGUCUUGUCGGUAGAAGGGUGGGACAUGAGGAUCACCCAUGUACACUCCCAGAUGGGAGUG [Ergeesis] (Eterna round: R96, puzzle: Same State NG 1) ?
Response line: 476

Prompt line: Also, GGUACAGUUACAGGAUAUGCUAUCCUUUGGGUAGCAGAAGGGUGGUAACAUGAGGAUCACCCAUGUGUGCCAGGGCGUGAGCCC [JL SSNG1 1.99] (Eterna round: R96, puzzle: Same State NG 1) please.
Response line: 700

Prompt line: Repeat with CAGCUCGUGUGAGGAUAUGCCGCCGUUUCGGCUGCAGAAGGUGCUACGUUACAUGAGGAUCACCCAUGUCUCUGUUGUUUCGUC [salish99_SSNG1_r04_962] (Eterna round: R96, puzzle: Same State NG 1)
Response line: 31.8
